assay: folding stability dG unfold from chymotrypsin proteolysis; higher = more stable
Label 1 (yes) when folding stability dG unfold is at or above 3 kcal/mol; anything below gets 0 (no).

Record excerpt, results attached:
In [3]: df
Out[3]:
                           primary_sequence    group
0  SAMVITIHPDIPLEELAELLGFPEIEDATVEPLNEGIVPATFHIPEDPDKVILIDFNPEPDFALVLVLSSAG [r14_713_TrMRF]   0 (no)
1  SAGGSAGGSAGEIVEVDGKLYIRVRTKDGEWKLIEMSADEIASLPAENVEEVEIVDPKDLSAGGSAGGSAGG [r11_779_TrROS_Hall]  1 (yes)
2  SAGGSAGGSAGGSDVKIEVERGPNGYYTVTIELNGKPKIIPFPPGRPPEDAKDEIKDLLSAGGSAGGSAGGS [r4_7_TrROS]   0 (no)
3  SAGGSAGGSKKIKITVVVPKEEAEKLLKELEKAGYKIVSVEKKEIPENELVVIEIVIEKPEELSAGGSAGGS [r12_445_TrROS_Hall]  1 (yes)
4  SAGGGSMFSTIYDPNSNNSIEAPLLSIREEDGRPTIEYQLPDGTRVTRPLSELGAFTLTGGAGSLTLPSAGG [r13_211_JUSTAS]   0 (no)

Data request: Does SAGGSAGGSKKVEVEILLLLPESTTEEEAKALAEELAEKIKEATPADDVEVKVVILKVPKNALSAGGSAGGS [r12_522_TrMRF] have a reported folding stability dG unfold of at least 3 kcal/mol?
Data returned: 0 (no)

Data request: Identify whether the reported folding stability dG unfold of the following sequence is 3 kcal/mol or greater: SAGGMVKLFTWPPGQPEEFAEKLRKLPDVVEVTIEEVDGALRIRIKLKGKDVEVTTDPAGRWSVTVVGSAGG [r13_907_JUSTAS]
Data returned: 0 (no)

Data request: Textbook exercise: given the entry SAGMKPPKIEITIEVVEKDGELYVRVKIKLENGEEIEIVMSLDEVKELLKKLFPEITEIEVEEVRLPPKSAG [r5_25_TrROS_Hall] , state whether its folding stability dG unfold is greater than or equal to 3 kcal/mol.
Data returned: 1 (yes)

Data request: Textbook exercise: given the entry SAGGSAGGSAGGGVAFSSDTTETRIDTTDDDTIVITTTTYAPNPSSTTTTVTTVPPDVPLSAGGSAGGSAGG [r7_128_JUSTAS] , state whether its folding stability dG unfold is greater than or equal to 3 kcal/mol.
Data returned: 0 (no)

Data request: Has SAELLEELLKKAREEAEKEGKKVEIHLVLVVEKDENGKVTFTEEEKELIKKLKEAFPDVEIKIEVVELPSAG [r14_636_TrROS_Hall] a recorded folding stability dG unfold greater than or equal to 3 kcal/mol?
Data returned: 1 (yes)

Data request: Does SAMVEVSTLPDGTTRVTITGKDPAAFEKELAELIEKIKKEGINATITKTREEPIPEEPELYRAELEIIVSAG [r14_119_JUSTAS] have a reported folding stability dG unfold of at least 3 kcal/mol?
Data returned: 0 (no)

Data request: Hello, I need to know if SAGGSAGGSAGMKVFIFKDPEKAIEAIKEFAGKNGVKYKIIEIETTPDGYVKIKVEFEPISAGGSAGGSAGG [r11_304_TrMRF] has measured folding stability dG unfold not below 3 kcal/mol. Thanks!
Data returned: 1 (yes)

Data request: In plain terms: is recorded folding stability dG unfold at least 3 kcal/mol for SAGGSAGVPPGGRVRVLVYNPLTGEVREVELPVGSLEEFLRGANLPAPLPDGRPAPVVVEILEVEPSAGGSA [r15_797_TrMRF] ?
Data returned: 1 (yes)

Data request: Does SAGGSAGGSAGFFRVDIDIMMSPEMLDLMKKNPGLPPGQEIPIMVVIKREPVPYDPNGKLSAGGSAGGSAGG [r17_194_TrROS] have a reported folding stability dG unfold of at least 3 kcal/mol?
Data returned: 0 (no)

Data request: Could you please find out whether SRTIENPDNGIKITVDRVPGGRYRVHIFNPGGKPIHEREIPDMPIPPGDTREIKIPIKGLPPGMYLMLEPWS [r1_263_TrROS] has folding stability dG unfold that meets 3 kcal/mol or exceeds it?
Data returned: 0 (no)

Data request: // inclusive: folding stability dG unfold at least 3 kcal/mol? input: SAGGSAGGSAGGENNWMIFIEIKIEWEIKPTPDGKWKWEPEIEIKSIRIMPPNSPAAKDLSAGGSAGGSAGG [r7_889_TrROS]
Data returned: 0 (no)

Data request: Tell me whether folding stability dG unfold is at least 3 kcal/mol here: KTITIIIPMTPEQIEELAKALAEKLGLSEEEVEVVKVEKIKNEDGELYVKITIKLKETGKEITIIVPLKDLS [r1_21_TrROS_Hall]
Data returned: 1 (yes)

Data request: Please tell me: is the sequence SAGGGMGSSMKAKVEEEIPELKAADSTKVEITVTVTETRSFALPGGELATTTTTTTKTLEVEVPEEESAGGS [r8_203_JUSTAS] at or over 3 kcal/mol in terms of folding stability dG unfold?
Data returned: 0 (no)

Data request: Quick check: does SAGGSADDVKIKVEYERNPENGYGQITVEVEDPDGKDLKVEIMFPNMTPEEMEKQAKDIAKEIAKKSAGGSA [r15_526_TrROS] have folding stability dG unfold greater than or equal to 3 kcal/mol?
Data returned: 0 (no)

Data request: Reported folding stability dG unfold at or above 3 kcal/mol? SAGGSAGGSMITLTLPDEEALRAYVEQLVADAGTEITEVTVTPLAPDTVEAEVSIDPTDPVGLSAGGSAGGS [r12_647_JUSTAS]
Data returned: 0 (no)
